B1: GFP aptamer (parent)
chain: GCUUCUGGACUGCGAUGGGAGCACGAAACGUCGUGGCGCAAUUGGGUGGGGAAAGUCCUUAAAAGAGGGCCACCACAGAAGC

Variants of: B1
TEST METHOD NOTES: HiTS-RAP
STUDY CONDITIONS: with EGFP
pKd: −log10 of the molar value.
Criterion: pKd meeting or surpassing 8. Met: yes. Not met: no.

> print(dat)
                              sequence.chain  assigned.label
 1  GCUUCUGGACUGCGAUGGGAGCACGAAACGUCGUGGCGCAAUUGGGUGGGGAAAGUCCUUAAAUGAGGGCCACCACAGAAGC [A64U]              no
 2  GCUUCUGGACUGCGACGGGAGCACGAAGCGUCGUGGCGCAAUUGGGUGGGGAAAGUCCUUAAAAGAGGGCCACCACAGAAGC [U16C A28G]             yes
 3  GCUUCUGGACUGCGAUGGGAGCACGAGACGUCGUGGCGCAAUUGGGUGGGGAAAGUCUUUAAAAGAGGGCCACCACAGAAGC [A27G C58U]             yes
 4  GCUUCUGGACUGCGAUGGGAGCACGAAACGUCGUGGCGCAAUUGGGGGGGGAAAGUCCUUAAAAGAGGGCCACCACAGAAGC [U47G]             yes
 5  GCUUCUGGACUGCGAUGGGAGCACGAAAUGUCGCGGCGCAAUUGGGUGGGGAAAGUCCUUAAAAGAGGGCCACCACAGAAGC [C29U U34C]              no
 6  GCUUCUGGACUGCGAUGGGAGCACGAAACAUCGUGGCGCAAUUGGGUGGGGAAAGUCCUUAAAAGAGGGCCACCGCAGAAGC [G30A A75G]              no
 7  GCUUCUGGACUGCGAUGGGAGCACGAGACGUCGUGGCGCAAUUGGGUGGGGAAAGUCCUUAAAAGAGGGCCACUACAGAAGC [A27G C74U]             yes
 8  GCUUCUGGACUGCGAUGGGAGCACGAAACGUCGUGGCGCAACUGGGUGGGGAAAGUCCUUAAAAGAGGGCCACUACAGAAGC [U42C C74U]             yes
 9  GCUUCUGGAUUGCGAUGGGAGCACGAAAUGUCGUGGCGCAAUUGGGUGGGGAAAGUCCUUAAAAGAGGGCCACCACAGAAGC [C10U C29U]             yes
10  GCUUCUGGACUGCGAUGGGAGCACGAAACGUCGUGGCGCGAUUGGGUGGGGAAAGUCCUUAAAAGAGGGCCAUCACAGAAGC [A40G C73U]             yes
11  GCUUCUGGACUGCGAUGGGAGCACGAGACGUCGUGGCGCGAUUGGGUGGGGAAAGUCCUUAAAAGAGGGCCACCACAGAAGC [A27G A40G]             yes
12  GCUUCUGGACUGCGAUGGGAGCACGAAACGCCGUGGCGCAAUUGGGUGGGGAAAGUCCUUAAAAGAGGGCCACCACAGGAGC [U31C A79G]             yes
13  GCUUCUGGACUGCGAUGGGAGCACGAAACGUCGUGGCGCAAUUGGGUGGGGAAAGUCCUUAAAAGAGGGGCACCACAGAAGC [C70G]              no
14  GCUUCUGGACUGCGAUGGGAGCACGGAACGUCGUGGCGCAAUUGGGUGGGGAAAGUCCUUAAAAGAGGGUCACCACAGAAGC [A26G C70U]             yes
15  GCUUCUGGACUGCGAUGGGAGCACGAAACAUCAUGGCGCAAUUGGGUGGGGAAAGUCCUUAAAAGAGGGCCACCACAGAAGC [G30A G33A]              no
16  GCUUCUGGACUGCGAUGGGAGCACGAAACGUUGUGGCGCAAUUGGGUGGGGAAAGUCCUUAAAAGAGGGCCACCACAGGAGC [C32U A79G]             yes
17  GCUUCUGGACUGCGAUGGGAGCACGAAACGUCGUGGCGCAAUUGGGUGGGGAAAGUCCUUAAAAUAGGGCCACCACAGAAGC [G65U]              no
18  GCUUCUGGACUGCGAUCGGAGCACGAAACGUCGUGGCGCAAUUGGGUGGGGAAAGUCCUUAAAAGAGGGCCACCACAGAAGC [G17C]              no
19  GCUUCUGGACUGCGAUGGGAGCACGAAACGUCGUGGCGCAAUUGGGUGGGGAAAGUCCUUAAAAGAGGUCCACCACAGAAGC [G69U]             yes
20  GCUUUUGGACUGCGAUGGGAGCACGAAACGUCGUGGCGCAAUUGGGUGGGGAAAGUCCUUAAAAGAGGGCCACCACAGAAGC [C5U]             yes
21  GCUUCUUGACUGCGAUGGGAGCACGAAACGUCGUGGCGCAAUUGGGUGGGGAAAGUCCUUAAAAGAGGGCCACCACAGAAGC [G7U]              no
22  GCUUCUGGACUGCGAUGGGAGCACGAAACGUCGUGACGCAAUUGGGUGGGGAAAGUCCUUAAAAGAGGGCCACCACAGAAGC [G36A]              no
23  GCUUCUGGACUGCGAUGGGAGCACGAAAUGCCGUGGCGCAAUUGGGUGGGGAAAGUCCUUAAAAGAGGGCCACCACAGAAGC [C29U U31C]             yes
24  GCUUCUGGACUGCGAUGGCAGCACGAAACGUCGUGGCGCAAUUGGGUGGGGAAAGUCCUUAAAAGAGGGCCACCACAGAAGC [G19C]              no
25  GCUUCUGGACUGCGAUGGGAGCACGAAACGUCGUGGCGCAAUUGGGUGGGGAAAGUCCUUAAAGGAGGGCCACCACAGAAGC [A64G]              no
26  GCUUCUGGACUGCGAUGGUAGCACGAAACGUCGUGGCGCAAUUGGGUGGGGAAAGUCCUUAAAAGAGGGCCACCACAGAAGC [G19U]              no
27  GCUUCUGGACUGCGAUGGGAGCACGAAACGUCGUGGCGCAAUUGGGUGGGGAAAGUCUUUAAAAGAGGGUCACCACAGAAGC [C58U C70U]             yes
28  GCUUCUGGACUGCGAUGGGAGCACGAAAUGUCGUGGCGCAAUUGGGUGGGGAAAGUCCUUAAAAGAGGGCCACUACAGAAGC [C29U C74U]             yes
29  GCUUCUGGACUGCGAUGGGGGCACGAAACAUCGUGGCGCAAUUGGGUGGGGAAAGUCCUUAAAAGAGGGCCACCACAGAAGC [A20G G30A]              no
30  GCUUCUGGACUGCGAUGGGAGCACGAAGCGUCGUGGCGCAAUUGGGUGGGGAAAGUCCUUAAAAGAGAGCCACCACAGAAGC [A28G G68A]              no
31  GCUUCUGGACUGCGAUGGGAGCACGAAGCGUCGUGGCGCAAUUAGGUGGGGAAAGUCCUUAAAAGAGGGCCACCACAGAAGC [A28G G44A]             yes
32  GCUUCUGGACUGUGAUGGGAGCACGAAGCGUCGUGGCGCAAUUGGGUGGGGAAAGUCCUUAAAAGAGGGCCACCACAGAAGC [C13U A28G]             yes
33  GCUUCUGGACUGCCAUGGGAGCACGAAACGUCGUGGCGCAAUUGGGUGGGGAAAGUCCUUAAAAGAGGGCCACCACAGAAGC [G14C]              no
34  GCUUCUGGACUGCGAUGGGAGCACGAAACGCCGUGGCGCGAUUGGGUGGGGAAAGUCCUUAAAAGAGGGCCACCACAGAAGC [U31C A40G]             yes
35  GCUUCUGGACUGUGAUGGGAGCACGAAACGUCGUGGCGCGAUUGGGUGGGGAAAGUCCUUAAAAGAGGGCCACCACAGAAGC [C13U A40G]             yes
36  GCUUCUGGACUGCGAUGGGAGCACGAAACGUCGUGGCGCAAUUGGGUGGGGAAAGUCCUUAAAAGAGGGCGACCACAGAAGC [C71G]              no
37  GCUUCUGGACUGCGAUGGGAGCACGAAGCGUCGUGGCGCAAUUGGGUGGGGAAAGUCCUUAAAAGAGGGCCACCACAGAAGC [A28G]             yes
38  GCUUCUGGACUGCGAUGGGAGCACGAGACAUCGUGGCGCAAUUGGGUGGGGAAAGUCCUUAAAAGAGGGCCACCACAGAAGC [A27G G30A]             yes
39  GCUUCUGGACUGCGAUGGGAGCACGAAACGUCGUGGCGCAAUUGCGUGGGGAAAGUCCUUAAAAGAGGGCCACCACAGAAGC [G45C]              no
40  GCUUCUGGACUGCGAUGGGAGCACGAAACGUCGUGGCGCUAUUGGGUGGGGAAAGUCCUUAAAAGAGGGCCACCACAGAAGC [A40U]              no
41  GCUUCUGGACUGCGCUGGGAGCACGAAACGUCGUGGCGCAAUUGGGUGGGGAAAGUCCUUAAAAGAGGGCCACCACAGAAGC [A15C]              no
42  GCUUCUGGACUGCGAUGGGAGCACGAAACGUCGUGGCGCAAUUGGGUGGGGAAAGUCCUAAAAAGAGGGCCACCACAGAAGC [U60A]             yes
43  GCUUCUGGACAGCGAUGGGAGCACGAAACGUCGUGGCGCAAUUGGGUGGGGAAAGUCCUUAAAAGAGGGCCACCACAGAAGC [U11A]             yes
44  GCUUCUGGACUGCGAUGGGAGCACGAAACGUCGUGGCGCAAUUGGGUGGGGAAAGGCCUUAAAAGAGGGCCACCACAGAAGC [U56G]             yes
45  GCUUCUGGACUGCGAUGGGAGCACGAAACGUCGUGGCGCAAUUGGGCGGGGAAAGUCUUUAAAAGAGGGCCACCACAGAAGC [U47C C58U]             yes
46  GCUUCUGGACUGUGAUGGGAGCACGAAACGUCGUGGCGCAAUUGGGUGGGGAAAGUCUUUAAAAGAGGGCCACCACAGAAGC [C13U C58U]             yes
47  GCUUCUGGACUGCGAUGGGAGCACGAAACGACGUGGCGCAAUUGGGUGGGGAAAGUCCUUAAAAGAGGGCCACCACAGAAGC [U31A]             yes
48  GCUUCUGGACUGCGAUGGGAGCACGAAACGUCGUGGCGCAAUUGGGUUGGGAAAGUCCUUAAAAGAGGGCCACCACAGAAGC [G48U]              no
49  GCUUCUGGACUGCGAUGGGAGCACGAAACGUCGUGGCGCAAUUCGGUGGGGAAAGUCCUUAAAAGAGGGCCACCACAGAAGC [G44C]              no
50  GCUUCUGGACUGCGAUGGGAGCACGAAACGUCGUGGUGCAAUUGGGUGGGGAAAGUCCUUAAAAGAGGGCCACCACAGAAGC [C37U]              no
51  GCUUCUGGACUGUGAUGGGAGCACGAAACGUCGCGGCGCAAUUGGGUGGGGAAAGUCCUUAAAAGAGGGCCACCACAGAAGC [C13U U34C]              no
52  GCUUCUGGACUGCGAUGGGAGCACGAAACGUCGUGGCGCAAUUGGGUGGGGAAAGUCCUUAACAGAGGGCCACCACAGAAGC [A63C]              no
53  GCUUCUGGACUGCGAUGGGACCACGAAACGUCGUGGCGCAAUUGGGUGGGGAAAGUCCUUAAAAGAGGGCCACCACAGAAGC [G21C]             yes
54  GCUUCUGGACUGCGAUGGGAGCACGAAGCGUCGUGGCGCAGUUGGGUGGGGAAAGUCCUUAAAAGAGGGCCACCACAGAAGC [A28G A41G]             yes
55  GCUUCUGGACUGCGAUGGGAGCACGAAACGUCGUGGCGCAAUUGGGUGGGGAAAGUCCUUAGAAGAGGGCCACCACAGAAGC [A62G]             yes
56  GCUUCUGGACUGCGAUGGGAGCACGAAACGUCGUGUCGCAAUUGGGUGGGGAAAGUCCUUAAAAGAGGGCCACCACAGAAGC [G36U]              no
57  GCUUCUGGACUGCGAUGGGAGCACGAGACGUCGUGGCGCAAUUGGGUGGGGAAAGUCCUUAAAAGAGGGCCACCACAGAAGC [A27G]             yes
58  GCUUCUGGACUGCGAUGGGAGCACGAAACGUCGUGGCGCAAUUGAGUGGGGAAAGUCCUUAAAAGAGGGCCACCACAGAAGC [G45A]              no
